Would you mind telling me the reported koff of each entry?
- tgt: T1, GST-tagged hNav1.7-loopA3 (human, UniProt Q15858 269-339)
- T1 construct: monomeric GST-tagged peptide; also called hNav1.7-loopA3-GST; Nav1.7-loopA3-GST; not shown: GST tag
- assay_protocol: Biacore SPR, antigen on CM5 chip, mAb in flow
State the answer as a number, implicitly in s⁻¹.

Report koff, nothing else, for this binder: 4H6 (antibody, human IgG1, V domains shown) VH: QVQLQESGPGLVKPSQTLSLTCTVSGGSITNYGWSWIRQPPGKGLEWMGVIAYDGSTYYSPSLKSRTSISRDTSKNQFSLQLSSVTPEDTAVYYCASAMVTTSSPWVKTFGAWGQGTQVTVSS VL: QAGLTQPPSVSGSPGKTVTISCAGTSSDVGYGNYVSWYQQLPGMAPKLLLYSVNKRASGIADRFSGSKSGNTASLTISGLQSEDEADYYCGCYDSSLSTPVFGGGTKLTVLG
1.54e-05

Report koff, nothing else, for this binder: 2D11 (antibody, human IgG1, V domains shown) VH: EVQLQESGPGLVKPSQTLSLTCTVSGGSITNSYYASSWIRQPPGKGLEWMGVIIYDGSTYYSPSLKSRTSISRDTSKNQFSLQLSSVTPEDTAVYYCARGLRVAGSYFTDFGTWGQGTQVTVSS VL: SYELTQSPSVSVALRQAAKITCGGDNIASKHAHWYQQKPGQSPVLVIYKDSNRPSGIPERFSGSNSGNTATLTVSGAQAEDEADYYCQVWDSSANAAVFGGGTHLTVLG
2.13e-05

Report koff, nothing else, for this binder: 4E8 (antibody, human IgG1, V domains shown) VH: EVQLQESGGGLVQPGGSLRLSCAASGFTFDDYAMSWVRQAPGKGLEWVSAISWNGGSTYYAESMKGRFTISRDNAKNTLYLQMNSLKSKDTAVYYCARRRYGLGSEYDYWGQGTQVTVSS VL: NFMLTQPSAVSVSLGQTARITCQGSSFGSSYAHWYQQMPGQAPILVIYRDSERPSGIPDRFSGSNSGGTATLTISGAQAEDEADYYCQSGSSSGNAHAVFGGGTHLTVLG
0.00063
